Measured GI50, listed per entry for reference.
- Tested on: HCT-15

Known results for compounds:
{"columns": ["Compound", "GI50"],
 "data": [
  ["COc1ccc(-c2coc3cc(O)ccc3c2=O)cc1 [FORMONONETIN]", "> 100 µM"],
  ["O=C(OCCOC(=O)c1ccc2c(c1)C1(SCCS1)c1ccccc1-2)c1ccc2c(c1)C1(SCCS1)c1ccccc1-2", "> 100 µM"],
  ["N=C(N)N/N=C/c1c(-c2cc([N+](=O)[O-])c(Cl)cc2Cl)nc2n1CCS2", "47 µM"],
  ["CCOC(=O)C(C(=O)OCC)=C1SC(=N\\c2ccccc2)/C(=N/c2ccccc2)N1c1ccccc1", "> 100 µM"],
  ["O=C1N[C@H]2[C@H](O)[C@H](O)[C@@H](O)[C@H](O)[C@@H]2c2cc3c(c(O)c21)OCO3 [PANCRATISTATIN]", "0.045 µM"]
]}

Incoming: # query: GI50 of entry CC1=NN(c2ccccc2)C(=O)C1/N=N/c1ccc(Br)cc1C (centres undefined)
Outgoing: > 100 µM

Incoming: Now give it for Oc1ccc2c(c1)OCC1(O)Cc3cc(O)c(O)cc3C21 (centres undefined) too.
Outgoing: 20.2 µM

Incoming: Proceed to CC[C@]1(O)C(=O)OCc2c1cc1n(c2=O)Cc2cc3c(N)cccc3nc2-1
Outgoing: > 100 µM

Incoming: Consider next the compound CC(=O)Nc1ccc2c(C(=O)O)c(C)c(O)nc2n1 in the same way.
Outgoing: > 100 µM

Incoming: // next record N#Cc1ccccc1NC(=O)/C(=N\Nc1ccc([N+](=O)[O-])cc1)C1C(=O)NC(=O)NC1=O
Outgoing: > 100 µM

Incoming: Next entry: Brc1cccc(C2ON=C(c3ccccc3)N2C23CC4CC(CC(C4)C2)C3)c1 (centres undefined)
Outgoing: > 10 µM

Incoming: Next: CCn1c(C)nn2c(=O)c3ccccc3nc2c1=O
Outgoing: > 100 µM

Incoming: Moving on to CCOc1ccc(NC(=O)/C(=C/c2ccccc2)C(C)=O)cc1
Outgoing: 8.99 µM

Incoming: Quick one: Cc1ccc([S+](c2ccccc2)c2cc(C)ccc2C)cc1.O=C(OC(C(=O)[O-])C(OC(=O)c1ccccc1)C(=O)O)c1ccccc1 (centres undefined)
Outgoing: > 100 µM

Incoming: Moving on to the next compound: Cn1cnc([N+](=O)[O-])c1[Se]c1nc(N)nc2c1ncn2C1OC(CO)C(O)C1O (centres undefined)
Outgoing: > 100 µM

Incoming: Note, next up: O=c1c2ncn(COCCCl)c2n(-c2ccccc2)c(=S)n1-c1ccccc1
Outgoing: > 100 µM

Incoming: What do you get for CN(C)C=C1C(=O)N(C)C(=O)N(C)C1=O ?
Outgoing: > 100 µM

Incoming: Moving on to COC(=O)C1(C(=O)OC)CC2=C(S(=O)(=O)c3ccccc3)C[C@H](S(=O)(=O)c3ccccc3)[C@H]2C1
Outgoing: 35.3 µM

Incoming: Another compound to look at: NC(=O)NC(=O)c1cccc(C(=O)NC(N)=O)n1
Outgoing: > 100 µM

Incoming: Also need Cc1n[nH]c(CC#N)n1 , thanks.
Outgoing: > 100 µM

Incoming: What about C[C@H]1S[C@@H](c2ccc(Cl)cc2Cl)N(NC(=O)c2ccncc2)C1=O ?
Outgoing: 47.9 µM

Incoming: Entry to check: COC(=O)/C(=N/NC(N)=O)C(C(=O)C(=O)Nc1ccc(C)cc1)c1nc2ccc(C(=O)c3ccccc3)cc2nc1O (centres undefined)
Outgoing: > 100 µM

Incoming: Then COc1ccc2c(c1)N=C1CSC(c3c(Cl)cccc3[N+](=O)[O-])N1C2 (centres undefined) ?
Outgoing: 30.8 µM

Incoming: Can you check O=C1NC(O)CCN1C1OC(CO)C(O)C1O (centres undefined) next?
Outgoing: > 250 µM

====

- Tested on: IGROV-1
- Assay details: NCI tumour cell line growth inhibition, 48 h
Activity calls are given as the source filed them. Cut-off read from the data, not from the text of the source: active = GI50 up to about 1.1 µM and inactive = higher.
Recorded GI50 for the following compounds

Incoming: Query (compound): COC(=O)/C(=N/NC(N)=O)C(C(=O)C(=O)Nc1ccc(C)cc1)c1nc2ccc(C(=O)c3ccccc3)cc2nc1O (stereo not drawn) ; field requested: GI50
Outgoing: 23.7 µM (inactive)

Incoming: What do you get for NCC1OC(OC2C(N)CC(N)C(O)C2OC2OC(CO)C(O)C2O)C(N)C(O)C1O (stereo not drawn) ?
Outgoing: > 50 µM (inactive)

Incoming: Subsequent entry: CC(NC(=O)C1(N)CCCC1)C(=O)O (stereo not drawn)
Outgoing: > 100 µM (inactive)

====

Each entry below lists one item and its recorded GI50 value.
- Test system: RPMI-8226
- Assay details: NCI tumour cell line growth inhibition, 48 h
Calls of active or inactive are those of the source. Cut-off read from the data, not from the text of the source: active = GI50 up to about 1.1 µM and inactive = higher.

Observe how each entry below is paired with its result.
{"columns": ["Compound", "GI50"],
 "data": [
  ["CCN1C2=NC(=O)N(C)C(=O)C2(Cl)C(C(SC)S(=O)(=O)c2ccc(C)cc2)c2ccccc21 (stereo not given)", "12.7 µM (inactive)"],
  ["COC(=O)[C@@H](Cc1ccccc1)NNC(=O)OC(C)(C)C", "> 100 µM (inactive)"],
  ["COc1ccc2cc3c4cc5c(cc4cc[n+]3cc2c1OC)OCO5", "8.13 µM (inactive)"],
  ["O=C(N/C=C1\\C(=O)Oc2ccccc2C1=O)Nc1ccccc1", "> 100 µM (inactive)"],
  ["CC1=NN(c2ccccc2)C(=O)C1/N=N/c1ccc(Br)cc1C (stereo not given)", "> 100 µM (inactive)"],
  ["CCOC(=O)C#Cc1ccc(C#CC(=O)OCC)cc1", "2.56 µM (inactive)"],
  ["Cc1cc(Cc2c(F)c(F)c(C(c3cc(C)no3)c3c(F)c(F)c(F)c(F)c3F)c(F)c2F)on1 (stereo not given)", "33.5 µM (inactive)"],
  ["Cc1ccc(-c2sc(-c3ccc(C)cc3)c3c2C2CCC3C2)cc1", "> 50 µM (inactive)"]
]}

Incoming: Need GI50, item Cc1c(C(=O)O)sc2nc[nH]c(=O)c12
Outgoing: > 100 µM (inactive)

Incoming: Next up: Cc1cc2c(cc1C)[n+]([O-])c(C(=O)CC(=O)C(=O)Nc1ccccc1C(C)C)c(C)[n+]2[O-]
Outgoing: > 100 µM (inactive)

Incoming: Could you do the same for NNC(=O)CC(=O)Nc1ccccc1Cl , please?
Outgoing: > 100 µM (inactive)

Incoming: // same read-out, input: COc1ccc(C(=O)NNC(=O)c2nsc3ccccc23)cc1
Outgoing: 52.5 µM (inactive)

Incoming: Also check O=c1[nH]c2[nH]c(-c3ccc(Br)cc3)cc2c2ccccc12
Outgoing: 70.5 µM (inactive)

Incoming: What do you get for CCCCCCCC(=O)OCC1OC(OC)C(NC(=O)N(CCCl)N=O)C(O)C1O (stereo not given) ?
Outgoing: 16.3 µM (inactive)

====

- Tested on: U-251
- Assay details: NCI tumour cell line growth inhibition, 48 h
Activity calls are given as the source filed them. Rule as the data show it: active = GI50 up to about 1.1 µM and inactive = higher.
Listed compounds paired with reported GI50

Solved entries:
{"columns": ["Compound", "Target or test system", "GI50"],
 "data": [
  ["COC1=CC(=O)C[C@@H](C)[C@]12Oc1c(Cl)c(OC)cc(OC)c1C2=O", "U-251", "27.7 µM (inactive)"],
  ["O=c1[nH]c2cc([N+](=O)[O-])c(Nc3c4ccccc4nc4ccccc34)c([N+](=O)[O-])c2[nH]1", "U-251", "3.58 µM (inactive)"],
  ["COc1cc(Cl)c(CC(=O)c2c[nH]c3ccccc23)cc1OC", "U-251", "8.38 µM (inactive)"],
  ["CN(C)C=C1C(=O)N(C)C(=O)N(C)C1=O", "U-251", "> 100 µM (inactive)"],
  ["CCOC(=O)Nc1ccc(S(=O)(=O)OC)cc1.CCOC(=O)Nc1ccc(S(=O)(=O)OC)cc1.NNC(=O)c1ccncc1", "U-251", "11.1 µM (inactive)"],
  ["COc1ccc2c(c1)N=C1CSC(c3c(Cl)cccc3[N+](=O)[O-])N1C2 (stereo unspecified)", "U-251", "54.2 µM (inactive)"]
]}

Incoming: API: value(readout= GI50, system= U-251, query= Cn1c(=S)c2nc(SCCN3CCCC3)[nH]c2n(C)c1=O )
Outgoing: > 100 µM (inactive)

====

- System: IGROV-1
- Assay details: NCI tumour cell line growth inhibition, 48 h
Calls of active or inactive are those of the source. Cut-off read from the data, not from the text of the source: active = GI50 up to about 1.1 µM and inactive = higher.
Property: GI50; scope: individual compounds

{"columns": ["Compound", "GI50"],
 "data": [
  ["CCOc1ccc(NC(=O)/C(=C/c2ccccc2)C(C)=O)cc1", "10.2 µM (inactive)"],
  ["CCO[C@@]1(COCc2ccccc2)OC(=O)C[C@@H]1N1C(=O)OC[C@@H]1c1ccccc1", "> 100 µM (inactive)"],
  ["Cc1c(C(=O)O)sc2nc[nH]c(=O)c12", "84.1 µM (inactive)"],
  ["CN1C=Cc2nccc3cc4c(c1c23)OCO4", "> 20.7 µM (inactive)"],
  ["CC(=O)N1N(c2ccc([N+](=O)[O-])cc2)C(=O)C1(C)C", "20.6 µM (inactive)"],
  ["C[N+](C)(C)CCc1ccccc1", "> 100 µM (inactive)"],
  ["COc1ccc(-c2nc(SCC(=O)N/N=C/c3ccc(N(C)C)cc3)[nH]c2-c2ccc(OC)cc2)cc1", "> 100 µM (inactive)"]
]}

Incoming: Please report the recorded GI50 for CC1CCC2C(C)C3C(CC4C5CC=C6CC(OC7OC(CO)C(O)C(OC8OC(CO)C(O)C(O)C8O)C7OC7OC(C)C(O)C(O)C7O)CCC6(C)C5CCC43C)N2C1 (stereo not drawn) .
Outgoing: 12.4 µM (inactive)

These entries and their values trace back to ChEMBL document CHEMBL1201862.
